- assayed_system: T1, human CD71 extracellular domain (human, UniProt P02786 89-760, biotinylated)
- T1 construct: also called hCD71; CD71-ECD
- T1 sequence (P02786 89-760): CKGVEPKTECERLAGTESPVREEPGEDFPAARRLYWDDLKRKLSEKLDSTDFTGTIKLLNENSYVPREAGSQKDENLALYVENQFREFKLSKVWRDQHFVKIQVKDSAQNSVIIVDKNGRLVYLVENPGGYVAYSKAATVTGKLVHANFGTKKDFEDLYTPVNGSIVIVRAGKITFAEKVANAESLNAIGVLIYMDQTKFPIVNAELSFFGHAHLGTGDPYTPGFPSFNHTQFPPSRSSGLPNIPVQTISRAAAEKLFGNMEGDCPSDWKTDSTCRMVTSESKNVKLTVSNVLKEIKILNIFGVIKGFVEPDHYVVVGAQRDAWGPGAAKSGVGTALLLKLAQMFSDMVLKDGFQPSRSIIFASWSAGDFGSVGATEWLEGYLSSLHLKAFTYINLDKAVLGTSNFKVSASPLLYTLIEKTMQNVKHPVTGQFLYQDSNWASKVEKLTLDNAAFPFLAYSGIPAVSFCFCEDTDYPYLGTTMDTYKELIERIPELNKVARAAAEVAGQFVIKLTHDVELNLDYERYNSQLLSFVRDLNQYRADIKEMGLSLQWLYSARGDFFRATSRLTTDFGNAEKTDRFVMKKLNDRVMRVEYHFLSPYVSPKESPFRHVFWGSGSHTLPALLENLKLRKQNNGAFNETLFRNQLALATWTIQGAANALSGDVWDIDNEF
- protocol: primary ELISA, RLU over HSA
measured_quantity: hCD71:HSA
// return a plain number; no unit text

>>> measured_value("CD71-binding FN3 domain of SEQ ID NO: 544 (designed binder) MLPAPKNLVVSRVTEDSARLSWTAPDAAFDSFFIGYLEPQPPGEAIALLVPGSERSYDLTGLKPGTEYNVTIQGVKGGFPSHPLSASFTT")
241

As a next step, examine the binder that follows.
*Q* Tell me the measured hCD71:HSA of CD71-binding FN3 domain of SEQ ID NO: 484 (designed binder) MLPAPKNLVVSRVTEDSARLSWTAPDAAFDSFEIAYQELSLWGEAIVLTVPGSERSYDLTGLKPGTEYYVHIGGVKGGIWSSPLSAISTT , please.
*A* 35
